# credit: ChEMBL document CHEMBL4334465

Tested on: Cryptococcus neoformans
Assay info: Fungicidal activity against Cryptococcus neoformans H99 measured after 96 hrs by time-kill assay
Type: functional, var grubii H99
A collection of molecules and their measured MFC100
Please reply with the bare figure in µg/mL and do not write the unit itself.

INSERT INTO results (item_smiles, reported_measurement) VALUES
  ('O=C(N/N=C/c1ccc(Br)cc1O)c1ccc(Br)cc1', 0.25),
  ('O=C(N/N=C/c1cc(F)ccc1O)c1ccc(Br)cc1', 4),
  ('O=C(N/N=C/c1cc(Br)cc(Br)c1O)c1cccc(OC(F)F)c1', 0.25),
  ('O=C(N/N=C/c1cc(F)ccc1O)c1ccc(Br)cc1Br', 2);

Now consider the entry below.
Suppose we examine the molecule `O=C(N/N=C/c1cccc(Cl)c1O)c1cccc(C(F)(F)F)c1` ; what MFC100 value has been reported?
2

====

Test system: Pichia kudriavzevii
Assay info: Antifungal activity against fluconazole-resistant Candida krusei assessed as FICI in presence of itraconazole
Type: functional
Hi, to clarify the labels: Y covers fractional inhibitory concentration index (FICI) from 0.4 upward, N covers anything below 0.4.

Sample answers from the record:
INSERT INTO measurements (item_smiles, discrete_label) VALUES
  ('O=C(N/N=C/c1cc(Br)cc(Br)c1O)c1ccc(Br)c(Br)c1', 'Y'),
  ('O=C(N/N=C/c1cc(Br)ccc1O)c1ccc(Br)cc1Br', 'N'),
  ('O=C(N/N=C/c1cc(Cl)cc(Cl)c1O)c1ccc(Br)c(Br)c1', 'Y');

Tell me whether fractional inhibitory concentration index (FICI) is at least 0.4 here: `O=C(N/N=C/c1ccc(Br)cc1O)c1ccc(Br)cc1Br`
N

Check `O=C(N/N=C/c1ccc(Br)cc1O)c1cc(Br)cc(Br)c1O` too.
N

====

Tested on: Pichia kudriavzevii
Assay info: Antifungal activity against Candida krusei measured after 24 to 72 hrs
Assay type: functional
Metric name: MIC80 (µg/mL)
Please reply with the bare figure in µg/mL and do not write the unit itself.

Some solved cases for reference:
INSERT INTO measurements (item_smiles, reported_measurement) VALUES
  ('O=C(N/N=C/c1cc(Cl)cc(Cl)c1O)c1ccc(Br)c(Br)c1', 0.25),
  ('O=C(N/N=C/c1ccc(Br)cc1O)c1cc(Br)cc(Br)c1O', 0.25);

Now consider the entry below.
Tell me reported MIC80 for `O=C(N/N=C/c1cc(Br)ccc1O)c1ccc(Br)cc1Br` , tested with Pichia kudriavzevii.
8

====

Test system: Cryptococcus neoformans
Assay info: Fungicidal activity against Cryptococcus neoformans H99 measured after 72 hrs by time-kill assay
Type: functional, var grubii H99
A collection of compounds and their measured MFC100

INSERT INTO assay_data (item_smiles, reported_measurement) VALUES
  ('O=C(N/N=C/c1cc(OC(F)(F)F)ccc1O)c1ccc(Br)cc1', '1 µg/mL'),
  ('O=C(N/N=C/c1cc(Br)ccc1O)c1ccc(OC(F)F)cc1', '2 µg/mL'),
  ('O=C(N/N=C/c1cc(Br)ccc1O)c1ccc(OC(F)(F)F)cc1F', '0.5 µg/mL');

Tell me reported MFC100 for `O=C(N/N=C/c1ccc(Br)cc1O)c1ccc(Br)c(Br)c1` , tested with Cryptococcus neoformans.
0.5 µg/mL

Check `O=C(N/N=C/c1cc(Br)ccc1O)c1ccc(Br)c(Br)c1` too.
1 µg/mL

====

System: Cryptococcus neoformans
Assay info: Fungicidal activity against Cryptococcus neoformans H99 measured after 12 hrs by time-kill assay
Type: functional, var grubii H99
A collection of compounds and their measured MFC100
Please reply with the bare figure in µg/mL and do not write the unit itself.

INSERT INTO results (item_smiles, measured_target, metric_name, result_unit, reported_measurement) VALUES
  ('O=C(N/N=C/c1cc(Br)cc(Br)c1O)c1ccc(C(F)(F)F)cc1', 'Cryptococcus neoformans', 'MFC100', 'µg/mL', 1),
  ('O=C(N/N=C/c1cc(Br)ccc1O)c1ccc(OC(F)(F)F)cc1', 'Cryptococcus neoformans', 'MFC100', 'µg/mL', 1),
  ('O=C(N/N=C/c1cccc(Br)c1O)c1cccc(F)c1', 'Cryptococcus neoformans', 'MFC100', 'µg/mL', 2),
  ('O=C(N/N=C/c1ccc(Br)cc1O)c1cc(Br)cc(Br)c1O', 'Cryptococcus neoformans', 'MFC100', 'µg/mL', 0.12),
  ('O=C(N/N=C/c1cc(Cl)ccc1O)c1cc(Br)cc(Br)c1', 'Cryptococcus neoformans', 'MFC100', 'µg/mL', 1);

Now consider the entry below.
Suppose we examine the compound `O=C(N/N=C/c1cc(Cl)ccc1O)c1ccc(Br)cc1Br` ; what MFC100 value has been reported?
1

====

Assay info: Selectivity index, ratio of LD50 for human HepG2 cells to MIC80 for Cryptococcus neoformans H99
Type: toxicity
Test context: read-out: Selectivity Index
A collection of molecules and their measured selectivity ratio
Would you mind answering with just the numeric figure?

Some solved cases for reference:
INSERT INTO results (item_smiles, reported_measurement) VALUES
  ('O=C(N/N=C/c1cc(C(F)(F)F)ccc1O)c1cccc(Br)c1', 32),
  ('O=C(N/N=C/c1cc(Br)cc(Br)c1O)c1ccc(C(F)(F)F)cc1F', 133),
  ('O=C(N/N=C/c1cc(Br)cc(Br)c1O)c1cccc(Br)c1Br', 32),
  ('O=C(N/N=C/c1ccc(Br)cc1O)c1ccc(Br)c(Br)c1', 66.6),
  ('O=C(N/N=C/c1cc(Br)ccc1O)c1ccc(OC(F)F)cc1', 64),
  ('O=C(N/N=C/c1cc(Br)ccc1O)c1ccc(C(F)(F)F)cc1F', 32),
  ('O=C(N/N=C/c1c(O)ccc2ccccc12)c1ccc(Br)c(Br)c1', 133),
  ('O=C(N/N=C/c1ccc(Br)cc1O)c1cccc(Br)c1', 16),
  ('Cc1ccc(O)c(/C=N/NC(=O)c2cc(Br)cc(Br)c2)c1', 32),
  ('O=C(N/N=C/c1cc(Cl)cc(Cl)c1O)c1cccc(Br)c1Br', 16);

Suppose we examine the molecule `O=C(N/N=C/c1cc(Br)cc(Br)c1O)c1ccc(F)cc1` ; what selectivity ratio value has been reported?
267

Check `O=C(N/N=C/c1ccc(Br)cc1O)c1cccc(F)c1F` too.
32

Check `O=C(N/N=C/c1cccc(Cl)c1O)c1cccc(C(F)(F)F)c1` too.
32

Check `O=C(N/N=C/c1ccc(Br)cc1O)c1cc(Br)ccc1Br` too.
133

Check `O=C(N/N=C/c1cc(Cl)ccc1O)c1cc(Br)ccc1Br` too.
128

====

System: HepG2
Assay info: Cytotoxicity against human HepG2 cells after 24 to 48 hrs by MTT assay
Assay type: functional
Test context: read-out: LD50 (the source's name)
Metric name: CC50 (µg/mL)
Please reply with the bare figure in µg/mL and do not write the unit itself.

Some solved cases for reference:
INSERT INTO measurements (item_smiles, measured_target, metric_name, reported_measurement) VALUES
  ('O=C(N/N=C/c1cc(Br)ccc1O)c1ccc(OC(F)(F)F)cc1F', 'HepG2', 'CC50', 8),
  ('O=C(N/N=C/c1cc(Br)cc(Br)c1O)c1ccc(Br)c(Br)c1', 'HepG2', 'CC50', 64),
  ('O=C(N/N=C/c1cc(Cl)ccc1O)c1ccc(Br)cc1Br', 'HepG2', 'CC50', 64),
  ('Cc1ccc(O)c(/C=N/NC(=O)c2ccc(Br)c(Br)c2)c1', 'HepG2', 'CC50', 16),
  ('O=C(N/N=C/c1cc(F)ccc1O)c1ccc(Br)cc1', 'HepG2', 'CC50', 16);

Suppose we examine the compound `O=C(N/N=C/c1cc(Br)cc(Br)c1O)c1ccc(OC(F)(F)F)cc1F` ; what CC50 value has been reported?
16

Check `O=C(N/N=C/c1cc(Br)ccc1O)c1ccc(Br)cc1Br` too.
64

Check `N#Cc1ccc(C(=O)N/N=C/c2cc(Br)cc(Br)c2O)cc1` too.
16

Check `O=C(N/N=C/c1cc(Br)ccc1O)c1cc(Br)ccc1Br` too.
32

Check `O=C(N/N=C/c1c(O)ccc2ccccc12)c1cc(Br)cc(Br)c1` too.
4

Check `O=C(N/N=C/c1cc(F)ccc1O)c1ccc(Br)cc1Br` too.
16

====

Tested on: Cryptococcus neoformans
Assay info: Antifungal activity against Cryptococcus neoformans H99 assessed as FICI in presence of itraconazole
Format: functional, var grubii H99
A collection of compounds and their measured fractional inhibitory concentration index (FICI)
Would you mind answering with just the numeric figure?

INSERT INTO measurements (item_smiles, reported_measurement) VALUES
  ('O=C(N/N=C/c1cc(Br)ccc1O)c1ccc(Br)cc1Br', 0.072),
  ('O=C(N/N=C/c1cc(Cl)cc(Cl)c1O)c1ccc(Br)c(Br)c1', 0.247);

Tell me reported fractional inhibitory concentration index (FICI) for `O=C(N/N=C/c1ccc(Br)cc1O)c1ccc(Br)cc1Br` , tested with Cryptococcus neoformans.
0.072

Check `O=C(N/N=C/c1ccc(Br)cc1O)c1cc(Br)cc(Br)c1O` too.
0.247

Check `O=C(N/N=C/c1cc(Br)cc(Br)c1O)c1ccc(Br)c(Br)c1` too.
0.247
